// data source = patent US20240239764A1

Molecular target: EGFR (Homo sapiens)
Sequence (P00533 25-1210): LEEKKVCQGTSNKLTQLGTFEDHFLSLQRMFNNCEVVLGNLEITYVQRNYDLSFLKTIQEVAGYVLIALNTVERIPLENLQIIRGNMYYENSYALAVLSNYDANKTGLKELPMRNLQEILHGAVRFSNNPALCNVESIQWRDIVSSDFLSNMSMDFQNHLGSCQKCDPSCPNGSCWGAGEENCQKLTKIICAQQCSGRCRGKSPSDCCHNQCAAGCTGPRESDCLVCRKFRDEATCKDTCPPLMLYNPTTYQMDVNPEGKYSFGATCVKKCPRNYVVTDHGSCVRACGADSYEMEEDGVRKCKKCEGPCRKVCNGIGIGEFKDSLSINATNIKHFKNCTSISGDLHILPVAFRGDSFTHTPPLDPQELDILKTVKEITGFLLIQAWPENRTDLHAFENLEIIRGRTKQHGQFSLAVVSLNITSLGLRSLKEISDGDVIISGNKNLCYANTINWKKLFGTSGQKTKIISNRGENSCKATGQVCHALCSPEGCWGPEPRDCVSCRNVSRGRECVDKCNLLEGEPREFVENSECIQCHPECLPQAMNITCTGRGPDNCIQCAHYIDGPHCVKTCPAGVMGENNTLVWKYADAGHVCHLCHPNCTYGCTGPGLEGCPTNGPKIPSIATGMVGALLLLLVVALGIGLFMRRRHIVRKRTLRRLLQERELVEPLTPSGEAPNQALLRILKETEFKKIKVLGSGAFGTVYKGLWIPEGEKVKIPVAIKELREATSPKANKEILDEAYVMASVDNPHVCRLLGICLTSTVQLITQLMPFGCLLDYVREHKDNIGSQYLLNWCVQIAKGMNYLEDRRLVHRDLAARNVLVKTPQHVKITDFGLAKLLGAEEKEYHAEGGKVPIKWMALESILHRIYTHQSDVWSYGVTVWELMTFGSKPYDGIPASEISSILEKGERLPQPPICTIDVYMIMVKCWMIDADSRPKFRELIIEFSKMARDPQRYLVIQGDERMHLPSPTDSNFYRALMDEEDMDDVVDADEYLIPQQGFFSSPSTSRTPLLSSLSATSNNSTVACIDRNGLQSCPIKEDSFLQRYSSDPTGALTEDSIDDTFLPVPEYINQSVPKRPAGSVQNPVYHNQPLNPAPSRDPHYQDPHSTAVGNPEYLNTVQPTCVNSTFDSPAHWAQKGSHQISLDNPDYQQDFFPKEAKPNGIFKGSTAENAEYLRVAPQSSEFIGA
outcome_measure: IC50

I looked up CS(=O)(=O)Nc1cncc(-c2ccc3ncnc(NCc4ccccc4)c3c2)c1 [Comparative Compound 3, reference compound] and its IC50 for EGFR (Homo sapiens) was 0.02 to 0.2 µM

* * *

Experiment: Solubility determination (PBS 7.4, SIF, SGF)
Format: physicochemical
Settings: aqueous buffer, kinetic from dmso stock, PBS pH 7.4, 25° C., read-out: Solubility pH 7.4 PBS buffer
outcome_measure: solubility at 2 h

Lab book: solubility at 2 h of C[C@@H](Nc1c(C#N)cnc2ccc(-c3cnc(Cl)c(NS(C)(=O)=O)c3)cc12)c1ccccc1 [Compound 48R] noted as ≤ 20 µM

* * *

Exercise: state measured IC50 for each of the compounds provided.

Entry CS(=O)(=O)Nc1cncc(-c2ccc3ncnc(NCc4ccccc4)c3c2)c1 [Comparative Compound 3, reference compound] : IC50 on PI3Ka (Homo sapiens) = 20 to 200 nM

Short answer on PI3Ka (Homo sapiens) for C[C@@H](Nc1c(C#N)cnc2ccc(-c3cnc(Cl)c(NS(C)(=O)=O)c3)cc12)c1ccccc1 [Compound 48R] , IC50: 2 to 20 nM

IC50 for PI3Ka (Homo sapiens) with input C[C@H](Nc1c(C#N)cnc2ccc(-c3cnc(Cl)c(NS(C)(=O)=O)c3)cc12)c1ccccc1 [Compound 48S] equals < 2 nM

* * *

Target: PI3Ka (Homo sapiens, UniProt P42336)
Sequence (P42336 whole entry): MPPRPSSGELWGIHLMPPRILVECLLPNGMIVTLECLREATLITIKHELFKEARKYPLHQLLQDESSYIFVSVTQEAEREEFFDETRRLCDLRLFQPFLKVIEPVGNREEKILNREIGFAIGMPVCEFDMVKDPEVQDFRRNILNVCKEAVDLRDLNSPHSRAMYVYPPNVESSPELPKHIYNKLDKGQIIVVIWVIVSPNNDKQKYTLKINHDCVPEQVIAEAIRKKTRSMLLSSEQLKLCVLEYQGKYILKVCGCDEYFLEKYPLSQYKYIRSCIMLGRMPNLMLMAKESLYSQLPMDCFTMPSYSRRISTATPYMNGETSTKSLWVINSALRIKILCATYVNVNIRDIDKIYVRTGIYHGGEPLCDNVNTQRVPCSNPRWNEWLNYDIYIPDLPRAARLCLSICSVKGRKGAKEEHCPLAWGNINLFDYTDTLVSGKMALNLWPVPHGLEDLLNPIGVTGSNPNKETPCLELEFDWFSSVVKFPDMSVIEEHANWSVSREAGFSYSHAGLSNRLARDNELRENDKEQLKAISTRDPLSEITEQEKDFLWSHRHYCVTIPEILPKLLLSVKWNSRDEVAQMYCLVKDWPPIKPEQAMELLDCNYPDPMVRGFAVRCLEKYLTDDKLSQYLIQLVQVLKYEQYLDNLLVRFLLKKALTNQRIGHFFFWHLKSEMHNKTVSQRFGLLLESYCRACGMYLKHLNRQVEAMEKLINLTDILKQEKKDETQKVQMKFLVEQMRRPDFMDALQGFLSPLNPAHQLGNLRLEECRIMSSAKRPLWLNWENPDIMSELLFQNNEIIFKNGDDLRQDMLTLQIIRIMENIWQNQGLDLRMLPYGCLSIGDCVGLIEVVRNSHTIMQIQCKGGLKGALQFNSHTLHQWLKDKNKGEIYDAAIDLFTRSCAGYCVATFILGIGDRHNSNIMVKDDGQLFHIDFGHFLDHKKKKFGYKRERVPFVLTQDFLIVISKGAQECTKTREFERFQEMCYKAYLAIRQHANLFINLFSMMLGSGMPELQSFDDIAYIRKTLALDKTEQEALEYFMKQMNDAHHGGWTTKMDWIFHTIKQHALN
Sequence (P27986 whole entry partner): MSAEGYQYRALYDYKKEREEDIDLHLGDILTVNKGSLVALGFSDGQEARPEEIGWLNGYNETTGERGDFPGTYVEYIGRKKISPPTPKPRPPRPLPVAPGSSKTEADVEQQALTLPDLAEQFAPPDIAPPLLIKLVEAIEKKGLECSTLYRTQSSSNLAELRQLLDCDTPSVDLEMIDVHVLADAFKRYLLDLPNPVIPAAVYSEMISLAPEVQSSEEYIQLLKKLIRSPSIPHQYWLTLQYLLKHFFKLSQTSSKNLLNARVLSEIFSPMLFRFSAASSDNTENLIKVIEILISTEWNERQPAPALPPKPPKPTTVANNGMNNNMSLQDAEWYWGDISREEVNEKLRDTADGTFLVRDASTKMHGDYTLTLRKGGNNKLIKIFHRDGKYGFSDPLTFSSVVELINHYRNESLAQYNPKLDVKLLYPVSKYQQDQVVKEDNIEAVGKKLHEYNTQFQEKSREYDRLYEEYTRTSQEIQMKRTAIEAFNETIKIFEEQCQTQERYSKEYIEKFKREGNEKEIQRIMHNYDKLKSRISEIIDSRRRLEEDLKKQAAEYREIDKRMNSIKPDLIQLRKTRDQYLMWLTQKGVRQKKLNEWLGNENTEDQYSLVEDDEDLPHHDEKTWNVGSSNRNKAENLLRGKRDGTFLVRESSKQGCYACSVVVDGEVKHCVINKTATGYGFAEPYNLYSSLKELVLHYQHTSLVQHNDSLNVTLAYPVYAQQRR
Assay: Z′-LYTE / ADAPTA kinase assay, PI3Ka
Type: biochemical
Conditions: read-out: PI3Ka % Inh. @100 nM
Record form. Attribute: inhibition at 0.1 µM. Fill in for each entry.

GET /value?item= CS(=O)(=O)Nc1cc(-c2ccc3ncc(C#N)c(NC4(c5ccccc5)CC4)c3c2)cnc1Cl &field=inhibition at 0.1 µM returns > 90%

Sure, the documented inhibition at 0.1 µM for CS(=O)(=O)Nc1cncc(-c2ccc3ncnc(NCc4ccccc4)c3c2)c1 [Comparative Compound 3, reference compound] is 80 to 90%

compound CS(=O)(=O)Nc1cc(-c2ccc3ncc(C#N)c(NC4c5ccccc5CC4O)c3c2)cnc1Cl (stereo not shown) , inhibition at 0.1 µM observed: > 90%

For reference, reported inhibition at 0.1 µM for C[C@@H](Nc1c(C#N)cnc2ccc(-c3cnc(Cl)c(NS(C)(=O)=O)c3)cc12)c1ccc(F)cc1 [Compound 97R] stands at 80 to 90%

* * *

Give measured solubility at 2 h for each item. Keep answers brief.
Test: Solubility determination (PBS 7.4, SIF, SGF)
Assay type: physicochemical
Conditions: simulated intestinal fluid (SIF), fassgf or other biorelevant, kinetic from dmso stock, simulated intestinal fluid pH 6.8, 25° C., read-out: Solubility SIF

Kindly note the recorded solubility at 2 h for CS(=O)(=O)Nc1cncc(-c2ccc3ncnc(NCc4ccccc4)c3c2)c1 [Comparative Compound 3, reference compound] , which is ≤ 20 µM

Quick note, solubility at 2 h for C[C@@H](Nc1c(C#N)cnc2ccc(-c3cnc(Cl)c(NS(C)(=O)=O)c3)cc12)c1ccccc1 [Compound 48R] landed at ≤ 20 µM
